These data points were gathered from the supplement of paper PMC10724198.

System: Saccharomyces cerevisiae
Test: protein stability index of tFT-peptide fusion (C-terminal peptide) (PSI (0-1 scale)); higher = more stable (slower turnover)
Details: genetic background: wild type; temperature: 30 C
protein stability index values by entry
When you answer, write just the number.

Q. Entry INARCNRTIVRP needs its protein stability index filled in; supply it.
A. 0.646

Q. Entry SATSFLAAGPPT needs its protein stability index filled in; supply it.
A. 0.696

Q. Entry IHRSPLTLPLLV needs its protein stability index filled in; supply it.
A. 0.468

Q. Entry PDPIFGEWVYMV needs its protein stability index filled in; supply it.
A. 0.327

Q. Entry LWLPSTSLIPLI needs its protein stability index filled in; supply it.
A. 0.641

Q. Entry GVLCGVGLGFGV needs its protein stability index filled in; supply it.
A. 0.702

====

Test system: Saccharomyces cerevisiae
Assay: protein stability index of tFT-peptide fusion (C-terminal peptide) (PSI (0-1 scale)); higher = more stable (slower turnover)
Conditions: genetic background: doa10 deletion; temperature: 30 C
REPORTED_ENDPOINT: protein stability index

Some solved entries appear below for comparison.
RESIDUE_STRING	ASSAY_SYSTEM	protein stability index
WLSFAIECGMVW	Saccharomyces cerevisiae	0.213
RRIKIRKQEYIS	Saccharomyces cerevisiae	0.185
RLINCIYVLMLP	Saccharomyces cerevisiae	0.261

Q. Look up and report protein stability index, with Saccharomyces cerevisiae as system, for VLFLLLFVSRVA
A. 0.203

Q. Look up and report protein stability index, with Saccharomyces cerevisiae as system, for TVERKMYWQRWG
A. 0.179

Q. Look up and report protein stability index, with Saccharomyces cerevisiae as system, for IFSFRWVLPFWL
A. 0.241

Q. Look up and report protein stability index, with Saccharomyces cerevisiae as system, for GFFLCTCIRFWV
A. 0.248

Q. Look up and report protein stability index, with Saccharomyces cerevisiae as system, for CLFFLVYELSIL
A. 0.216

Q. Look up and report protein stability index, with Saccharomyces cerevisiae as system, for LFIVTFIPVLFS
A. 0.41

Q. Look up and report protein stability index, with Saccharomyces cerevisiae as system, for YLGSLQVPVHLF
A. 0.226

====

protein stability index values by entry
Test system: Saccharomyces cerevisiae
Assay: protein stability index of tFT-peptide fusion (C-terminal peptide) (PSI (0-1 scale)); higher = more stable (slower turnover)
Conditions: genetic background: wild type; temperature: 30 C

Some solved entries appear below for comparison.
RESIDUE_STRING	ASSAY_SYSTEM	protein stability index
ESTPKDAARSTN [ASF1 C-terminal 12 aa]	Saccharomyces cerevisiae	0.705
IMPDRFDYENYY [TMS1 C-terminal 12 aa]	Saccharomyces cerevisiae	0.698
YAKFGDNINLER [GIM3 C-terminal 12 aa]	Saccharomyces cerevisiae	0.698
LEVTTKPREWVK [HEM13 C-terminal 12 aa]	Saccharomyces cerevisiae	0.712
SDEGHAHEDCAK [LOG1 C-terminal 12 aa]	Saccharomyces cerevisiae	0.669

Field: next sequence
Q. Entry ILLITGFKSSFT [SRL4 C-terminal 12 aa] needs its protein stability index filled in; supply it.
A. 0.737

====

Test system: Saccharomyces cerevisiae
Assay: protein stability index of tFT-peptide fusion (C-terminal peptide) (PSI (0-1 scale)); higher = more stable (slower turnover)
Details: genetic background: wild type; temperature: 30 C
REPORTED_ENDPOINT: protein stability index

Some solved entries appear below for comparison.
RESIDUE_STRING	MEASURED_RESULT
CFPPLPPPPPPS	0.736
KNNKSERIEKEQ	0.701
SSLSPLLYRPLF	0.742
GWLVVLGLVQDL	0.559
SGWSWLGLRSGL	0.738

Q. Entry IQARAVRRSAII needs its protein stability index filled in; supply it.
A. 0.627

Q. Entry CTSCHVWRLSRF needs its protein stability index filled in; supply it.
A. 0.765

Q. Entry CPFPLPPPTLPP needs its protein stability index filled in; supply it.
A. 0.657

Q. Entry PRHVLWLRRLLF needs its protein stability index filled in; supply it.
A. 0.334

Q. Entry FLLASSRRICCS needs its protein stability index filled in; supply it.
A. 0.391

Q. Entry PGTVQVGFDIQV needs its protein stability index filled in; supply it.
A. 0.717

Q. Entry PSFPSSPSPVTL needs its protein stability index filled in; supply it.
A. 0.69

Q. Entry FQVCAPLPISRS needs its protein stability index filled in; supply it.
A. 0.717

Q. Entry LTFRFGVNPYVF needs its protein stability index filled in; supply it.
A. 0.323

Q. Entry RLLRGDRMVICS needs its protein stability index filled in; supply it.
A. 0.433

====

Test system: Saccharomyces cerevisiae
Test: protein stability index of tFT-peptide fusion (C-terminal peptide) (PSI (0-1 scale)); higher = more stable (slower turnover)
Conditions: genetic background: wild type; temperature: 30 C
Each entry gets 0 (no) if its protein stability index stays under 0.7, and 1 (yes) if its protein stability index is 0.7 or above.

RESIDUE_STRING	ASSIGNED_CATEGORY
VHTAIFTSWRRL	0 (no)
KIDKKNKKKKRN	1 (yes)
HWPSPLSPAVPG	1 (yes)
RALLGSVVCSYG	0 (no)
GIWVMVSVCSIA	0 (no)
GKMQIRRFISRS	0 (no)

Q. Quick check: does PPPLPPPLILTP have protein stability index greater than or equal to 0.7?
A. 0 (no)

Q. Quick check: does VRCWEDGFLDSS have protein stability index greater than or equal to 0.7?
A. 1 (yes)

====

System: Saccharomyces cerevisiae
Experiment: protein stability index of tFT-peptide fusion (C-terminal peptide) (PSI (0-1 scale)); higher = more stable (slower turnover)
Details: genetic background: wild type; temperature: 30 C
protein stability index values by entry
When you answer, write just the number.

Some solved entries appear below for comparison.
RESIDUE_STRING	protein stability index
AVLFAPPLSSNF	0.729
PPPLRPPPPPLP	0.645
RFGLIFTSPHPL	0.63
VRRLSASSDGKI	0.761
ITRKKLEISVDK	0.685
PCGGGGRECVRG	0.808
CSLTVGYNRHDV	0.635
DSDGILTEPTSW	0.707

Q. Entry GFACRSGSFWST needs its protein stability index filled in; supply it.
A. 0.848

Q. Entry CFSLLFYTLSLL needs its protein stability index filled in; supply it.
A. 0.351

Q. Entry TASAAKGAAPQQ needs its protein stability index filled in; supply it.
A. 0.676

Q. Entry VVATLRCLRCSV needs its protein stability index filled in; supply it.
A. 0.405

Q. Entry IILAIRLLVDTL needs its protein stability index filled in; supply it.
A. 0.248

Q. Entry VLVVRVLLSDLV needs its protein stability index filled in; supply it.
A. 0.262

Q. Entry PPPLPSPPPRLP needs its protein stability index filled in; supply it.
A. 0.693

Q. Entry APASSSAHTPFP needs its protein stability index filled in; supply it.
A. 0.723

Q. Entry SPPFLLPFFPTP needs its protein stability index filled in; supply it.
A. 0.68

====

Tested on: Saccharomyces cerevisiae
Experiment: protein stability index of tFT-peptide fusion (C-terminal peptide) (PSI (0-1 scale)); higher = more stable (slower turnover)
Conditions: genetic background: wild type; temperature: 30 C
Each entry gets 0 (no) if its protein stability index stays under 0.7, and 1 (yes) if its protein stability index is 0.7 or above.

Q. Quick check: does VLSCCTAVAYPF have protein stability index greater than or equal to 0.7?
A. 0 (no)

Q. Quick check: does PPSPPDLPPHPP have protein stability index greater than or equal to 0.7?
A. 0 (no)

====

protein stability index values by entry
Tested on: Saccharomyces cerevisiae
Test: protein stability index of tFT-peptide fusion (C-terminal peptide) (PSI (0-1 scale)); higher = more stable (slower turnover)
Settings: genetic background: das1 deletion; temperature: 30 C
When you answer, write just the number.

Some solved entries appear below for comparison.
RESIDUE_STRING	MEASURED_RESULT
ELSDLENKLGKK [RCF1 C-terminal 12 aa]	0.684
RFYFLSIFKYII [YBR191W-A C-terminal 12 aa]	0.633
CSTERPKRARCD [YOR342C C-terminal 12 aa]	0.708
LLPGNTNLPWTS [ERG12 C-terminal 12 aa]	0.709
LNNIKTIIEGPE [XYL2 C-terminal 12 aa]	0.676

Q. Entry LGSSMVQGRSIR [YPK1 C-terminal 12 aa] needs its protein stability index filled in; supply it.
A. 0.71

Q. Entry DKKVNNNIILFL [YAL037C-A C-terminal 12 aa] needs its protein stability index filled in; supply it.
A. 0.692

Q. Entry FTPSYIPEPVLL [YOR161W-B C-terminal 12 aa] needs its protein stability index filled in; supply it.
A. 0.671

Q. Entry QKRIQRKKMNEM [AIM23 C-terminal 12 aa] needs its protein stability index filled in; supply it.
A. 0.712

Q. Entry LLVEKKDIPSNS [PRM4 C-terminal 12 aa] needs its protein stability index filled in; supply it.
A. 0.697

Q. Entry SSAASSQVPAST [PTK1 C-terminal 12 aa] needs its protein stability index filled in; supply it.
A. 0.694

Q. Entry RLRAKSPYAWDD [YHK8 C-terminal 12 aa] needs its protein stability index filled in; supply it.
A. 0.729
